These entries and their values trace back to patent US20250333523A1.

Target: T1, Avi/HisMsIL18BPd (recombinant mouse IL-18BP with Avi and poly-His tags) (mouse, biotinylated with BirA on the Avi tag in some assays)
T1 chain: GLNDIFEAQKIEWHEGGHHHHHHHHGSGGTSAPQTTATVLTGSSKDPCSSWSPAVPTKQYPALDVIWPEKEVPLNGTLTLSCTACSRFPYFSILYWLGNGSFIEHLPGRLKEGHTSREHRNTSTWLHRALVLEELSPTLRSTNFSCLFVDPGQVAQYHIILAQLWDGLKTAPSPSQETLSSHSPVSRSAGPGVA
Assay: cell-based or functional assay
For each entry below, report its EC50 of IFNγ release, mouse splenocytes value.

stdin: Reported EC50 of IFNγ release, mouse splenocytes for anti-IL-18BP antibody variant BP-04.29 (antibody, V domains shown) VH: QVQLVQSGAEVKKPGASVKVSCKASGYTFTDYDMHWVRQAPGQGLEWMGIISTYYGDVSYAQKFQGRVTMTRDKSTSTVYMELSSLRSEDTAVYYCARSGTYNYGTRESHALDYWGQGTLVTVSS VL: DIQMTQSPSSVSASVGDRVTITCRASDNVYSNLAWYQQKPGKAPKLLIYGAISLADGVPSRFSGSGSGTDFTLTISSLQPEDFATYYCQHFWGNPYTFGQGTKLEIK : what is it?
stdout: 45.5 nM

stdin: Reported EC50 of IFNγ release, mouse splenocytes for anti-IL-18BP antibody variant BP-04.09 (antibody, V domains shown) VH: QVQLVQSGAEVKKPGASVKVSCKASGYTFTDYDMHWVRQAPGQGLEWMGIYSTYYGVVSYAQKFQGRVTMTRDKSTSTVYMELSSLRSEDTAVYYCARSGTYYYGTRESHAFDYWGQGTLVTVSS VL: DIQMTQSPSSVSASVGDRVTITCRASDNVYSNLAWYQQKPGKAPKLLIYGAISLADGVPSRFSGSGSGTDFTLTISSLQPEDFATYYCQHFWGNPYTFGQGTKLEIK : what is it?
stdout: 2.04 nM

stdin: Reported EC50 of IFNγ release, mouse splenocytes for anti-IL-18BP antibody variant BP-04.26 (antibody, V domains shown) VH: QVQLVQSGAEVKKPGASVKVSCKASGYTFTDYDMHWVRQAPGQGLEWMGIYSTYYGVVSYAQKFQGRVTMTRDKSTSTVYMELSSLRSEDTAVYYCARSGTYYYGTRESHALDYWGQGTLVTVSS VL: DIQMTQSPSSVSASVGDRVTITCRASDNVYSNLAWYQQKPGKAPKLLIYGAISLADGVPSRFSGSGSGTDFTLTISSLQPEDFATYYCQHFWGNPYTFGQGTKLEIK : what is it?
stdout: 6.02 nM
